- Tested on: GT4d (34R + 232G-pool) replicon
- run.description: HCV replicon susceptibility to antiviral agents, GT4d (34R + 232G-pool)
- Assay type: cell-based
- run.conditions: Hepatitis C virus, GT4d replicon with Q34R + S232G, n = 2
parameter: EC50 (nM)
Please reply with the bare figure in nM and do not write the unit itself.

[Q] // query EC50 value for entry CC(C)OC(=O)[C@H](C)NP(=O)(OC[C@H]1O[C@@H](n2ccc(=O)[nH]c2=O)[C@](C)(F)[C@@H]1O)Oc1ccccc1 (stereo partly shown) [Compound A]
[A] 33

###

- Test system: GT4a replicon
- run.description: HCV replicon susceptibility to antiviral agents, GT4a
- Type: cell-based
- run.conditions: Hepatitis C virus, n = 2
parameter: pEC50
Just so you know, pEC50 here is -log10 of the concentration in molar units; reply with that number alone.

[Q] // query pEC50 value for entry CC(C)OC(=O)[C@H](C)NP(=O)(OC[C@H]1O[C@@H](n2ccc(=O)[nH]c2=O)[C@](C)(F)[C@@H]1O)Oc1ccccc1 (stereo partly shown)
[A] 7.15
